System: UACC-62 melanoma
Test: NCI tumour cell line growth inhibition, 48 h
measurement_kind: TGI (µM)

* COC1=CC(=O)c2nc(Cl)ccc2C1=O | 3.45
* COC1C(O)C(C)OC(OC2CCC3(C)C(CCC4C3C(O)CC3(C)C(C5=CC(=O)OC5)CCC43O)C2)C1O (stereo not given) | 1.25

====

Test system: TK-10 renal
Experiment: NCI tumour cell line growth inhibition, 48 h; in the data active means GI50 below about 0.43 µM; inactive means the rest
Classes used: active, inactive

- Cc1cc(Cl)cc(Cc2cc(Cl)cc(C)c2O)c1O: inactive
- Cc1ccc(S(=O)(=O)N2CCc3ccc(O)c4c3C2Cc2ccc3c(c2-4)OCO3)cc1 (configuration not stated): inactive
- CCn1ccc(NS(=O)(=O)c2ccc(N)cc2)nc1=O: inactive
- C[CH2][Sn]([CH2]C)([O]C(=O)c1ccc(OC)c(OC)c1OC)[O]C(=O)c1ccc(OC)c(OC)c1OC: inactive
- C=C1C(=O)O[C@H]2[C@H]1CC/C(COC(=O)NCCCCCCCCNC(=O)OC/C1=C/CC[C@@]3(C)O[C@H]3[C@H]3OC(=O)C(=C)[C@@H]3CC1)=C\CC[C@@]1(C)O[C@@H]21: active
- O=[N+]([O-])c1ccc(Sc2ccncn2)c([N+](=O)[O-])c1: inactive
- C[C@@H](Oc1cc(-n2cnc3ccc(OC[C@@H](O)CO)cc32)sc1C(N)=O)c1ccccc1Cl: inactive
- N#CC1C(=O)NC(c2ccccc2[N+](=O)[O-])c2sc3c(F)cccc3c21 (configuration not stated): inactive
- COc1ccc2c(c1)C(=O)c1c-2c(Nc2cccc(C(C)=O)c2)nc2ccccc12: inactive
- CCC[CH2][Pb]([Cl])([CH2]CCC)[CH2]CCC: active
- CN1CCN(Cc2cc(NC(=O)c3cccc(C#Cc4cccc5[nH]nc(N)c45)c3)cc(C(F)(F)F)c2)CC1: inactive
- CN(C)CCOC(=O)Nc1nc2ccc(Sc3ccccc3)cc2[nH]1: inactive
- Cc1ccc(OCC2OC(n3cnc4c(Br)nc(Br)nc43)CC2Oc2ccc(C)cc2)cc1 (configuration not stated): inactive
- CN(C)CCNC(=O)NC[C@H]1CC[C@@H]2[C@H](O1)c1cc(C(F)(F)F)ccc1N[C@H]2c1ccccc1: inactive
- COc1cccc2c1C(=O)c1c(O)c3c(c(O)c1C2=O)C[C@@](O)(C(=O)CO)CC3OC1CC(NCCCC(OC(C)=O)OC(C)=O)C(O)C(C)O1 (some centres not stated): active
- CCN(Cc1ccc(F)cc1)c1ccc(CO)c(OC)c1: inactive
- COc1cc(/C=C2\C[C@H]3[C@@H]4CC=C5C[C@@H](OC(C)=O)CC[C@]5(C)[C@H]4CC[C@]3(C)[C@H]2OC(C)=O)ccc1OCCN1CCCC1: inactive

====

The following molecules are listed with their measured TGI values.
System: SW-620 colon
Experiment: NCI tumour cell line growth inhibition, 48 h
measurement_kind: TGI

• COc1cccc(NC(=O)C(=O)C2C=CCS2(=O)=O)c1 (stereo not drawn) = > 100 µM
• O=C1/C(=C/c2ccc(Cl)cc2)CSC/C1=C\c1ccc(Cl)cc1 = 13.4 µM
• COc1ccc(OC)c2c3c([nH]c12)C(=O)Nc1nc(N)nc(N)c1C3 = > 100 µM
• COC(=O)C1=NN2c3ccccc3CN([C@@H](C)c3ccccc3)C(=O)[C@@H]2[C@H]1c1ccccc1 = > 100 µM
• C=C1Cc2cc(OC)c(OC)c(OC)c2-c2ccc(SC)c(=O)cc21 = 4 µM
• CSCCC(C(=O)O)N(CC1(O)OCC(O)C(O)C1O)N=O (stereo not drawn) = > 100 µM
• CC[C@H](C)[C@H](NC(=O)[C@@]1(O)[C@H](O)[C@]2(CC)C=CCN3CC[C@@]4(c5cc(Br)c(OC)cc5N(C)[C@@H]14)[C@@H]32)C(=O)OC = > 100 µM
• COCCn1cc(-c2csc(-c3c[nH]c4ccc(Br)cc34)n2)c2cccnc21 = > 100 µM
• CC1(C)C2CCC(O)(C2)C1N (stereo not drawn) = > 100 µM
• CCOC(=O)C(C(O)c1ccc([N+](=O)[O-])cc1)P(=O)(OCC)OCC (stereo not drawn) = > 100 µM
• N#Cc1c(N2CCN(c3ccc([N+](=O)[O-])cc3)CC2)[n+](=O)c2ccccc2n1[O-] = > 100 µM
• Cc1nccc2c3ccc(OCc4cn(-c5ccc(Cl)cc5)nn4)cc3n(CC(C)C)c12 = > 33.3 µM
• C/C(=N/N=C(N)N)c1ccc(NC(=O)Nc2ccc(/C(C)=N/N=C(N)N)cc2)cc1 = > 100 µM
• S=C(N1CCN(c2ccccc2)CC1)N1CCN(c2ccccc2)CC1 = > 100 µM
• C=C(CCCO)[C@@H]1CC[C@@](C)(O)[C@H]1C = > 100 µM
• CCOC(=O)C(=O)NC12CC3CC(CC(C3)C1)C2 = > 100 µM
• O=[N+]([O-])c1cc2c([N+](=O)[O-])cccc2o1 = 7.99 µM
• COc1ccc(N(C)c2nc(Cl)nc3cnn(C)c23)cc1 = > 100 µM
• COc1ccc(CCc2cc(OC)c(O)c(OC)c2)cc1 = > 100 µM
• C=CCc1c(O)c(C(=O)/C=C/c2ccccc2)c(OC)c2ccoc12 = 12.1 µM
• O=c1c2cc(I)ccc2nc(-c2cccs2)n1/N=C/c1ccccc1 = > 100 µM
• CN(CCCn1ccnc1[N+](=O)[O-])CCCn1ccnc1[N+](=O)[O-] = > 100 µM
• CC(C)CCCC(C)[C@H]1CC[C@H]2N=C(NCc3ccccc3)CCC[C@]12C (stereo partly drawn) = 4.45 µM
• COc1ccc(C(=O)/C=C/c2ccc(OCC(=N)N)cc2)cc1 = 14.7 µM
• CCN(CC)CCn1c2ccccc2c(=O)c2c(OC)ccc(OC)c21 = > 100 µM
• [O-]c1c2c(nn1-c1ccc(Cl)cc1)c1ccccc1c[n+]2Cc1ccccc1 = > 100 µM
• CCN1CCC(O)(c2ccc(O)cc2)C(C(=O)c2ccc(O)cc2)C1 (stereo not drawn) = 12.3 µM
• COc1ccc2c(c1OC(C)=O)C1=CC(=O)CCC13CCNC3C2 (stereo not drawn) = > 100 µM
• CC(=O)/C(C=Nc1c(C)n(C)n(C)c1=O)=C(/O)c1ccccc1 = > 50 µM
• CCO/C(Cc1ccc(Cl)cc1)=N/NC(N)=S = > 100 µM
• O=c1c(Cl)cc2nc3ccccc3sc-2c1Cl = 34.9 µM
• CN1CCN(Cc2cc(NC(=O)c3cccc(C#Cc4cccc5[nH]nc(N)c45)c3)cc(C(F)(F)F)c2)CC1 = 2.89 µM
• COC(=O)/C(C#N)=C(\N)c1c(C)c2ccccc2oc1=N = > 100 µM
• C#Cc1cccc(NC(=O)c2ccc(NC(=O)CCl)cc2)c1 = 34 µM
• CC1C(c2ccccc2O)c2cc3c(cc2OC1N1CCOCC1)OCO3 (stereo not drawn) = > 100 µM
• CCCCCC[C@H](C)NC(=O)c1ccc(Nc2nc3ccccc3c3occc23)cc1 = > 100 µM
• Cc1cccc2c1c(=O)c1c(O)cc(O)cc1n2C = > 100 µM
• CCN(Cc1ccc(F)cc1)c1ccc(CO)c(OC)c1 = > 100 µM
• COc1ccc2nc(NC(=O)C(=O)NNC(=O)c3ccncc3)sc2c1 = > 100 µM
• CCOC(=O)C(Cc1ccc(N(CCCl)CCCl)cc1)NC(=O)CCCN1C(=O)CN=C(c2ccccc2)c2cc(Cl)ccc21 (stereo not drawn) = > 62.3 µM
• COc1cccc(/C=C\c2ccc(O)cc2)c1 = > 90.7 µM
• O=c1c2ccccc2[nH]c2c(Cl)cc(Cl)c(N3CCCCC3)c12 = 84.8 µM
• CC(=O)O[C@H]1CC2C=CC3C(CCC31)O2 (stereo partly drawn) = > 100 µM
